experimental protocol: LD 50 P.O., mice
details: mouse, in vivo, po
hey, just use True if measured LD50 is less than 3000 mg/kg, otherwise False

Task: State whether 3000 mg/kg exceeds LD50 recorded for O=C1Nc2ccc(Cl)cc2C(c2ccccc2)=N[C@H]1Cc1ccccc1 [21 (S)] .
Output: True

Task: State whether 3000 mg/kg exceeds LD50 recorded for C[C@@H](O)[C@@H]1N=C(c2ccccc2)c2cc(Cl)ccc2NC1=O [24 (S)] .
Output: False

Task: State whether 3000 mg/kg exceeds LD50 recorded for C[C@@H]1N=C(c2ccccc2)c2cc(Cl)ccc2NC1=O [20 (S)] .
Output: True

Task: State whether 3000 mg/kg exceeds LD50 recorded for CC(C)[C@@H]1N=C(c2ccccc2)c2cc(Cl)ccc2NC1=O [25 (S)] .
Output: True

Task: State whether 3000 mg/kg exceeds LD50 recorded for O=C1Nc2ccc(Cl)cc2C(c2ccccc2)=NC1O (stereo not shown) .
Output: False

Task: State whether 3000 mg/kg exceeds LD50 recorded for O=C1Nc2ccc(Cl)cc2C(c2ccccc2)=N[C@H]1Cc1ccc(O)cc1 [22 (S)] .
Output: True

Task: State whether 3000 mg/kg exceeds LD50 recorded for CN1C(=O)C(OCC(O)CO)N=C(c2ccccc2)c2cc(Cl)ccc21 [31 (S)] .
Output: False

Task: State whether 3000 mg/kg exceeds LD50 recorded for O=C1Nc2ccc(Cl)cc2C(c2ccccc2)=N[C@H]1Cc1c[nH]c2ccccc12 [23 (S)] .
Output: True

Task: State whether 3000 mg/kg exceeds LD50 recorded for C[C@@H]1N=C(c2ccccc2)c2cc(Cl)ccc2N(C)C1=O [26 (S)] .
Output: True

Task: State whether 3000 mg/kg exceeds LD50 recorded for CN1CCN=C(c2ccccc2)c2cc(Cl)ccc21 .
Output: True
